system: trypsin; test: Insulin digestion in immobilized enzyme reactor, buffer screening (Table 7); assay type: biochemical, porcine; details: 0.5M; IMER, 70°C, 60 s
Structures can show the parent of a compound that is named as a salt.
Listed here: items and their measured Undigested.

[
  {
    "molecule": "[Cl-].[Na+] [NaCl]",
    "Undigested": 1679944
  },
  {
    "molecule": "[Ca+2].[Cl-].[Cl-] [CaCl2, calcium chloride]",
    "Undigested": 234332
  },
  {
    "molecule": "NC(N)=O [Urea]",
    "Undigested": 2285541
  },
  {
    "molecule": "NC(CO)(CO)CO [Tris]",
    "Undigested": 1490447
  },
  {
    "molecule": "N=C(N)N [Gdn HC1, guanidine hydrochloride]",
    "Undigested": 4114993
  }
]

###

test system: porcine trypsin; construct: purchased; experiment: Insulin digestion by trypsin in solution, buffer screening (Table 9); type: biochemical; conditions: 15%, 37°C, 18 h
property_measured: Undigested

[
  {
    "compound": "CC(C)O",
    "quantitative_readout": 4509078
  },
  {
    "compound": "CC#N",
    "quantitative_readout": 2715010
  },
  {
    "compound": "NC=O [Formamide]",
    "quantitative_readout": 4281392
  },
  {
    "compound": "C[S+](C)[O-] [DMSO, dimethylsulfoxide]",
    "quantitative_readout": 4423224
  },
  {
    "compound": "CO",
    "quantitative_readout": 4218905
  },
  {
    "compound": "OCC(F)(F)F",
    "quantitative_readout": 4785656
  }
]

###

Listed here: items and their measured Undigested.
system: porcine trypsin; construct: purchased; assay: Insulin digestion by trypsin in solution, buffer screening (Table 9); assay type: biochemical; details: 20%, 37°C, 18 h
property_measured: Undigested

[
  {
    "compound": "CC#N [ACN, acetonitrile]",
    "quantitative_readout": 3445401
  },
  {
    "compound": "OCC(F)(F)F [TFE]",
    "quantitative_readout": 4907160
  },
  {
    "compound": "OCC(O)CO [Glycerol]",
    "quantitative_readout": 5163829
  },
  {
    "compound": "CC(C)O [IPA, isopropyl alcohol]",
    "quantitative_readout": 4992140
  },
  {
    "compound": "C[S+](C)[O-] [DMSO, dimethylsulfoxide]",
    "quantitative_readout": 4523186
  },
  {
    "compound": "NC=O [Formamide]",
    "quantitative_readout": 4620417
  },
  {
    "compound": "CO [MeOH, methanol]",
    "quantitative_readout": 3394642
  }
]

###

tested on: trypsin; assay: Insulin digestion in immobilized enzyme reactor, buffer screening (Table 7); format: biochemical, porcine; conditions: 5%; IMER, 70°C, 60 s
Tag: yes if measured Peptide is not below 600000, no if it is.

[
  {
    "molecule": "C[S+](C)[O-] [DMSO, dimethylsulfoxide]",
    "class": "yes"
  },
  {
    "molecule": "OCC(F)(F)F",
    "class": "no"
  },
  {
    "molecule": "CC(C)O",
    "class": "no"
  },
  {
    "molecule": "OCC(O)CO",
    "class": "yes"
  },
  {
    "molecule": "CO",
    "class": "yes"
  },
  {
    "molecule": "CC#N",
    "class": "no"
  },
  {
    "molecule": "NC=O [Formamide]",
    "class": "no"
  }
]
